All values here come from patent US8129396B2.

- ASSAY SYSTEM: VEGFR2 kinase (Homo sapiens)
- Sequence (P35968 20-1356): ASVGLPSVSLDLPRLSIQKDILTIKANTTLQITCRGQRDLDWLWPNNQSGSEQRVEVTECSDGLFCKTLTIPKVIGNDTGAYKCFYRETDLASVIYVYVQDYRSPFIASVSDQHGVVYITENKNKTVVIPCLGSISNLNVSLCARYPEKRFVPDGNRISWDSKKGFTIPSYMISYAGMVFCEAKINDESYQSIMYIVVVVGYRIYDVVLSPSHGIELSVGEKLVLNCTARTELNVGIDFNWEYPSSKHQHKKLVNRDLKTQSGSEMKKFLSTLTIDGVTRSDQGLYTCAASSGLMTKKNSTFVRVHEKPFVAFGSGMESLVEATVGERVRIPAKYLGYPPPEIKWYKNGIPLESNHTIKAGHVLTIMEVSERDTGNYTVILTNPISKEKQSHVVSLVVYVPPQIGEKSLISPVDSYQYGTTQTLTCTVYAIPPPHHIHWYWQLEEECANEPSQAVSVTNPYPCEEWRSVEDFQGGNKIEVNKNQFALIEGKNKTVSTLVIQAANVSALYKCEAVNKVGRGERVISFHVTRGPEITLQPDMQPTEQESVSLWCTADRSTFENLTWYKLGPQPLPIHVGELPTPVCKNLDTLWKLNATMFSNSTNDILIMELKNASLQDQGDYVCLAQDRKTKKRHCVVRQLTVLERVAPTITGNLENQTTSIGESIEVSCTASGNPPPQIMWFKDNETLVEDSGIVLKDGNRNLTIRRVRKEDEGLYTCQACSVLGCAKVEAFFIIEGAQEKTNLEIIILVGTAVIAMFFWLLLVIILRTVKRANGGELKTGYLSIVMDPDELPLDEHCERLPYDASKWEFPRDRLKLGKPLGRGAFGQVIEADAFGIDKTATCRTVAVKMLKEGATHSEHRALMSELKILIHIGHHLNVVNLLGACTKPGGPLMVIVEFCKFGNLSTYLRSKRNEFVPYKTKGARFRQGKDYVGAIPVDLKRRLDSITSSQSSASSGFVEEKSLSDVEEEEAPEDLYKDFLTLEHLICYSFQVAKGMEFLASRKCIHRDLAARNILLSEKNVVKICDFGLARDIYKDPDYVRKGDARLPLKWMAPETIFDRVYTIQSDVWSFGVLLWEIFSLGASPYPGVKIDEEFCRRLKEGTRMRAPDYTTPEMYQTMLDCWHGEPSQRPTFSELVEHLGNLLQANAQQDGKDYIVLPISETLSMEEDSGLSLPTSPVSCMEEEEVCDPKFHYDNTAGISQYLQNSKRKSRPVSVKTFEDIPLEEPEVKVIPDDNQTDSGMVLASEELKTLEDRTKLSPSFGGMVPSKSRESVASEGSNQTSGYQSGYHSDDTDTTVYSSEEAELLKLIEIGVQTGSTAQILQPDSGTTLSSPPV
Examples of compounds with documented pIC50 follow.
// returns pIC50 (minus log10 of molar concentration), number only

Observe how each entry below is paired with its result.
So the reported pIC50 for NC(=O)/C(=C1\Nc2ccc(C(=O)NCCCn3ccnc3)cc2N1)c1nccc(C(F)(F)F)n1 [Compound 45A] , on VEGFR2 kinase (Homo sapiens), turned out to be 7.70

So the reported pIC50 for NC(=O)/C(=C1\Nc2ccc(C(=O)Nc3ccncc3)cc2N1)c1nccc(C(F)(F)F)n1 [Compound 44A] , on VEGFR2 kinase (Homo sapiens), turned out to be 8.00

So the reported pIC50 for COC(=O)c1ccc2c(c1)N/C(=C(/C(N)=O)c1nccc(C(F)(F)F)n1)N2 [Compound 29A] , on VEGFR2 kinase (Homo sapiens), turned out to be 7.00

Kindly review the next compound as well.
So the reported pIC50 for NC(=O)/C(=C1\Nc2ccc(C(=O)NCCN3CCOCC3)cc2N1)c1nccc(C(F)(F)F)n1 [Compound 53A] , on VEGFR2 kinase (Homo sapiens), turned out to be 7.70

---

- System: HUVEC-2 (human umbilical vein endothelial cells)
- METHOD SUMMARY: HUVEC VEGF-dependent proliferation assay (BrdU)
- Type: cell-based
- CONDITION DETAILS: read-out: HUVEC IC50
- Procedure: […] HUVEC-2 cells were seeded at 10^4 cells/well in a 96-well plate coated with 0.1% gelatin in complete medium. […] The plates were then processed using the Roche BrdU labeling and detection kit, and the VEGF-dependent antiproliferative activity of the compounds determined.
MEASUREMENT KIND: pIC50
// returns pIC50 (minus log10 of molar concentration), number only

Lab book: pIC50 of NC(=O)/C(=C1\Nc2ccc(CC(=O)NCCCN3CCOCC3)cc2S1)c1nccc(C(F)(F)F)n1 [Compound 110A] noted as 7.10

---

Read-out record for Aurora B kinase (Homo sapiens, UniProt Q96GD4): pIC50
// returns pIC50 (minus log10 of molar concentration), number only

Observe how each entry below is paired with its result.
Lab book: pIC50 of CCN(CC)CC(=O)Nc1ccc2c(c1)N/C(=C(/C(N)=O)c1nccc(C(F)(F)F)n1)N2 [Compound 75A] noted as 8.00

Lab book: pIC50 of CN1CCN(CCOc2ccc3c(c2)S/C(=C(/C(N)=O)c2nccc(C(F)(F)F)n2)N3)CC1 [Compound 114A] noted as 7.70

Lab book: pIC50 of NC(=O)C(=C1Nc2ccc(OCCn3ccnc3)cc2S1)c1nccc(C(F)(F)F)n1 (single isomer, unassigned) [Compound 117A] noted as 8.10

Lab book: pIC50 of Cn1ccnc1-c1ccc2c(c1)S/C(=C(/C(N)=O)c1nccc(C(F)(F)F)n1)N2 [Compound 106A] noted as 7.70

Further cases:
Lab book: pIC50 of NC(=O)C(=C1Nc2ccccc2N1)c1nc(N)cc(C(F)(F)F)n1 [Compound 12A] noted as 8.22

Lab book: pIC50 of NC(=O)/C(=C1\Nc2ccc(S(=O)(=O)N3CCNCC3)cc2S1)c1nccc(C(F)(F)F)n1 [Compound 129A] noted as 8.00

Lab book: pIC50 of NC(=O)/C(=C1\Nc2ccccc2S1)c1nc(OCCN2CCOCC2)cc(C(F)(F)F)n1 [Compound 14A] noted as 7.52
